# assay.system: UniProtKB P27338
# Sequence (P27338 whole entry): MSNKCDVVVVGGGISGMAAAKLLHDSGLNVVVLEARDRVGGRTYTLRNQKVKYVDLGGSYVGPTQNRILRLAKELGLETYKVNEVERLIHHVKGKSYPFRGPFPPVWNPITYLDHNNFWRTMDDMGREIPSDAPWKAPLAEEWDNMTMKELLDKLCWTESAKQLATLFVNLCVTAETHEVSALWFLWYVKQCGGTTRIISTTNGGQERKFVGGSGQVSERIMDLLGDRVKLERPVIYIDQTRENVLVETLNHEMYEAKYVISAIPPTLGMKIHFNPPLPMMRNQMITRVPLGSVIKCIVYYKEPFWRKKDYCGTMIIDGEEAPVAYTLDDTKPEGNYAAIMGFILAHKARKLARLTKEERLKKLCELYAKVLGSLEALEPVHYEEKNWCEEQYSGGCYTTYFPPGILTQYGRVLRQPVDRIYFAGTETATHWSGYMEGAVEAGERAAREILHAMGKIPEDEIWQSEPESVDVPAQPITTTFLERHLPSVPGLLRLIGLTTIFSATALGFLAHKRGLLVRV
# protocol.summary: Inhibition of recombinant human MAO-B expressed in baculovirus infected insect cell microsomes using kynuramine as substrate measured after 30 mins by fluorescence based assay
result.type: pIC50
When answering, recall that pIC50 equals minus log10 of the concentration in mol/L, and write that number alone.

// known answers, use as guide
>>> df
                                   molecule      assay_system  readout_number
0  Cc1c(C)c2ccc(OCC3CCN(Cc4cccc(OCCCO)c4)CC3)cc2oc1=O  UniProtKB P27338            6.11
1  Cc1c(C)c2ccc(OCC3CCN(Cc4ccc(CO)cc4)CC3)cc2oc1=O  UniProtKB P27338            7.54
2  Cc1c(C)c2ccc(OCC3CCN(Cc4cccc(CO[N+](=O)[O-])c4)CC3)cc2oc1=O  UniProtKB P27338            7.29

# input Any idea what its pIC50 is? The molecule is Cc1c(C)c2ccc(OCC3CCN(CCCO[N+](=O)[O-])CC3)cc2oc1=O
# output 6.60

# input Next entry: Cc1c(C)c2ccc(OCC3CCN(Cc4ccc(CCO)cc4)CC3)cc2oc1=O
# output 6.92

# input Would you kindly repeat that for Cc1c(C)c2ccc(OCC3CCN(CCCCO)CC3)cc2oc1=O ?
# output 5.44

# input Request: Cc1c(C)c2ccc(OCC3CCCN(Cc4ccc(CO)cc4)C3)cc2oc1=O (stereo not given)
# output 7.12

# input Then what about the molecule Cc1c(C)c2ccc(OCc3cccc(CN4CCC(CO)CC4)c3)cc2oc1=O ?
# output 6.49

# input Likewise for Cc1c(C)c2ccc(OCC3CCCN(CCCO)C3)cc2oc1=O (stereo not given) ?
# output 5.82

# input Cc1c(C)c2ccc(OCC3CCN(CCCO)CC3)cc2oc1=O , same question.
# output 6.32

====

Observed IC50 for Acetylcholinesterase (Electrophorus electricus), reported per entry below.
State the answer as a number, implicitly in µM.

                                   molecule  result_type  readout_number
0  Cc1c(C)c2ccc(OCC3CCCN(CCCO)C3)cc2oc1=O (stereo not drawn)         IC50             1.8

# input Entry O=c1ccc2ccc(OCC3CCCN(CCCO)C3)cc2o1 (stereo not drawn) : reported IC50 = ?
# output 3.5

# input And the next one, CN(C)Cc1cc(=O)oc2cc(OCc3cccc(CO)c3)ccc12 ?
# output 4.4
